Origin of the recorded values: paper PMC6572064

Tested on: MDA-MB-436 (a BRCA-1-mutated breast cancer cell line)
Experiment: Cell proliferation assay, three-day, CellTiter-Glo, MDA-MB-436
Format: cell-based
Conditions: Homo sapiens, MDA-MB-436, MDA-MB-436, Conc. 33.33 uM, replicate 2; read-out: Inh % 2
Protocol: A three-day assay was conducted. A cell suspension was prepared. Cell density was counted by an automated cell counter and then diluted to the required density, according to seeding density. 50 μL cells were seeded into 384-well plate in growth medium according to the plate map. The cells were incubated at 37 °C, 5% CO2 overnight. […] The assay plate was equilibrated to room temperature prior to measurement. […] Luminescence was recorded on the Envision system.
Could you please report measured inhibition at 33.33 µM for the items listed next?
Output spec: scalar in %, unitless text.

Asked: // query inhibition at 33.33 µM value for entry C[C@]1(c2nc3c(C(N)=O)cccc3[nH]2)CCCN1 [pc1, Veliparib, reference compound]
Given back: 7.4

Asked: // query inhibition at 33.33 µM value for entry NC(=O)c1cccc2[nH]c(C3CCN(CC(=O)c4ccccc4)C3)nc12 (centres unmarked) [Compound 5cd]
Given back: 16.5

Asked: // query inhibition at 33.33 µM value for entry NC(=O)c1cccc2[nH]c(C3CCN(CCCN4C(=O)c5ccccc5C4=O)C3)nc12 (centres unmarked) [Compound 5ce]
Given back: -11

Asked: // query inhibition at 33.33 µM value for entry NC(=O)c1cccc2[nH]c(C3CCN(CCCNC(=O)c4ccccc4)C3)nc12 (centres unmarked) [Compound 5cn]
Given back: 1.5

Asked: // query inhibition at 33.33 µM value for entry NCCCN1CCC(c2nc3c(C(N)=O)cccc3[nH]2)C1 (centres unmarked) [Compound 5cl]
Given back: -7

Asked: // query inhibition at 33.33 µM value for entry NC(=O)c1cccc2[nH]c(C3CCN(CCN4C(=O)c5ccccc5C4=O)C3)nc12 (centres unmarked) [Compound 5ck]
Given back: -12

Asked: // query inhibition at 33.33 µM value for entry NC(=O)c1cccc2[nH]c(C3CCN(CCC(=O)c4ccc(Cl)cc4)C3)nc12 (centres unmarked) [Compound 5cj]
Given back: 82.1

Asked: // query inhibition at 33.33 µM value for entry NCCN1CCC(c2nc3c(C(N)=O)cccc3[nH]2)C1 (centres unmarked) [Compound 5cm]
Given back: -4.3
